Just for reference, patent US20260356851A1 is where these values come from.

Biological target: pERK1/2 (Thr202/Tyr204), NCI-1H358 (KRAS G12C) (Homo sapiens, UniProt P01116, G12C)
Construct: pERK1/2 HTRF read-out
Sequence (P01116 1-188 isoform P01116-2 G12C): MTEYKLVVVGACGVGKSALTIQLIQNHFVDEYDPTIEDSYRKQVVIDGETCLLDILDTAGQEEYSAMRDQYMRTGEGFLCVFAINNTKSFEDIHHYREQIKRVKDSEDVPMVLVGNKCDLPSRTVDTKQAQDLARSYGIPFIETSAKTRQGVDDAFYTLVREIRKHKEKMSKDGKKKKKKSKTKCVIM
Assay: Assay of intracellular pERK1/2 (Thr202/Tyr204) phosphorylation in NCI-H358 cells (KRAS G12C)
Type: cell-based
Conditions: pERK1/2, 2 days, read-out: NCI-H358 (KRAS G12C) IC50
Description: Example 2: Assay of intracellular pERK1/2 (Thr202/Tyr204)phosphorylation 1. […] Fluorescence ratio=fluorescence value665 nm/fluorescence value615 nm Inhibition rate (%)=100−((fluorescence ratio of compound well−fluorescence ratio of negative control well)/(fluorescence ratio of positive control well−fluorescence ratio of negative control well))×100 […]
Attribute: IC50

[
  {
    "Compound": "CC(c1cccnc1N)N1c2nc(OC[C@@]34CCCN3C[C@H](F)C4)nc3c(F)c(-c4cc(N)cc(Cl)c4C(F)(F)F)nc(c23)OC[C@@H]1C (single isomer, unassigned) [Compound 271]",
    "Experimental System": "pERK1/2 (Thr202/Tyr204), NCI-1H358 (KRAS G12C) (Homo sapiens, UniProt P01116, G12C)",
    "Reading Unit": "nM",
    "Result Qualifier": "=",
    "IC50": 66
  },
  {
    "Compound": "CC(c1cccnc1N)N1CCOc2nc(-c3cc(N)c(F)c(Cl)c3C(F)(F)F)c(F)c3nc(OC[C@@]45CCCN4CC4(CC4(F)F)C5)nc1c23 (single isomer, unassigned)",
    "Experimental System": "pERK1/2 (Thr202/Tyr204), NCI-1H358 (KRAS G12C) (Homo sapiens, UniProt P01116, G12C)",
    "Reading Unit": "nM",
    "Result Qualifier": "=",
    "IC50": 0.2
  },
  {
    "Compound": "[2H]C([2H])(Oc1nc2c3c(nc(-c4cc(N)c(F)c(C)c4C(F)(F)F)c(F)c3n1)OCCN2C(C)c1cccnc1N)[C@@H]1CCC([2H])([2H])N1C([2H])([2H])[2H] (some centres unmarked)",
    "Experimental System": "pERK1/2 (Thr202/Tyr204), NCI-1H358 (KRAS G12C) (Homo sapiens, UniProt P01116, G12C)",
    "Reading Unit": "nM",
    "Result Qualifier": "=",
    "IC50": 2
  },
  {
    "Compound": "CC(c1cccnc1N)N1c2nc(OC[C@@]34CCCN3C[C@H](F)C4)nc3c(F)c(-c4cc(O)cc5ccc(F)c(F)c45)nc(c23)OC[C@@H]1C (single isomer, unassigned) [Compound 275]",
    "Experimental System": "pERK1/2 (Thr202/Tyr204), NCI-1H358 (KRAS G12C) (Homo sapiens, UniProt P01116, G12C)",
    "Reading Unit": "nM",
    "Result Qualifier": "=",
    "IC50": 0.4
  },
  {
    "Compound": "CC(c1cccnc1N)N1c2nc(OC[C@@]34CCCN3C[C@H](F)C4)nc3c(F)c(-c4cccc5nc(N)nn45)nc(c23)OC[C@@H]1C (some centres unmarked)",
    "Experimental System": "pERK1/2 (Thr202/Tyr204), NCI-1H358 (KRAS G12C) (Homo sapiens, UniProt P01116, G12C)",
    "Reading Unit": "nM",
    "Result Qualifier": ">",
    "IC50": 100
  }
]

---

Target: pERK1/2 (Thr202/Tyr204), NCI-1H441 (KRAS G12V) (Homo sapiens, UniProt P01116, G12V)
Construct: pERK1/2 HTRF read-out
Sequence (P01116 1-188 isoform P01116-2 G12V): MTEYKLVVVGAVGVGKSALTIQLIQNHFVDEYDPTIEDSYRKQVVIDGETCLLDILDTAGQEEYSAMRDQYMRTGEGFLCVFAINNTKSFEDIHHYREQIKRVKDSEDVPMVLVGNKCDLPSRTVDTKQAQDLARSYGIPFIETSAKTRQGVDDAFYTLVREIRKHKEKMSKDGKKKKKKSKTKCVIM
Experiment: Assay of intracellular pERK1/2 (Thr202/Tyr204) phosphorylation in NCI-H441 cells (KRAS G12V)
Type: cell-based
Conditions: pERK1/2, 2 days, read-out: NCI-H441 (KRAS G12V) IC50

[
  {
    "Compound": "COc1cc2cn[nH]c2cc1-c1nc2c3c(nc(OC[C@@]45CCCN4C[C@H](F)C5)nc3c1F)N(C(C)c1cccnc1N)[C@@H](C)CO2 (stereo partly drawn)",
    "Result Qualifier": ">",
    "IC50 / nM": 100
  },
  {
    "Compound": "CC(c1cccnc1N)N1c2nc(OC[C@@]34CCCN3C[C@H](F)C4)nc3c(F)c(-c4ccc(F)c5sc(N)nc45)nc(c23)OC[C@@H]1C (stereo partly drawn)",
    "Result Qualifier": "=",
    "IC50 / nM": 4
  },
  {
    "Compound": "Cc1c(F)c(N)cc(-c2nc3c4c(nc(OC[C@@]56CCCN5C[C@]5(CC5(F)F)C6)nc4c2F)N(C(C)c2cccnc2N)CCO3)c1C(F)(F)F (single isomer, unassigned; diastereomer 2)",
    "Result Qualifier": "=",
    "IC50 / nM": 0.4
  }
]

---

Target: pERK1/2 (Thr202/Tyr204), NCI-1H358 (KRAS G12C) (Homo sapiens, UniProt P01116, G12C)
Construct: pERK1/2 HTRF read-out
Test: Assay of intracellular pERK1/2 (Thr202/Tyr204) phosphorylation in NCI-H358 cells (KRAS G12C)
Assay type: cell-based
Conditions: pERK1/2, 2 days, read-out: NCI-H358 (KRAS G12C) IC50
Source text: Example 2: Assay of intracellular pERK1/2 (Thr202/Tyr204)phosphorylation 1. […] Fluorescence ratio=fluorescence value665 nm/fluorescence value615 nm Inhibition rate (%)=100−((fluorescence ratio of compound well−fluorescence ratio of negative control well)/(fluorescence ratio of positive control well−fluorescence ratio of negative control well))×100 […]
Reported Property: IC50

[
  {
    "Molecule": "Cc1c(F)c(N)cc(-c2nc3c4c(nc(OC[C@@]56CCCN5C[C@H](F)C6)nc4c2F)N(C(C)c2cn(C)nc2N)CCO3)c1C(F)(F)F (single isomer, unassigned)",
    "Experimental System": "pERK1/2 (Thr202/Tyr204), NCI-1H358 (KRAS G12C) (Homo sapiens, UniProt P01116, G12C)",
    "Experimental Result": "> 100 nM"
  },
  {
    "Molecule": "CC(c1cccnc1N)N1c2nc(OC[C@@]34CCCN3C[C@H](F)C4)nc3c(F)c(-c4cc(F)cc5c4C(F)(F)CC5)nc(c23)OC[C@@H]1C (stereo partly drawn)",
    "Experimental System": "pERK1/2 (Thr202/Tyr204), NCI-1H358 (KRAS G12C) (Homo sapiens, UniProt P01116, G12C)",
    "Experimental Result": "3 nM"
  },
  {
    "Molecule": "CC(c1cccnc1N)N1CCOc2nc(-c3cc(O)cc(Cl)c3C3CC3)c(F)c3nc(OC[C@@H]4CCCCN4C)nc1c23 (stereo partly drawn)",
    "Experimental System": "pERK1/2 (Thr202/Tyr204), NCI-1H358 (KRAS G12C) (Homo sapiens, UniProt P01116, G12C)",
    "Experimental Result": "91 nM"
  }
]

---

Attribute: IC50
Molecular target: pERK1/2 (Thr202/Tyr204), NCI-1H358 (KRAS G12C) (Homo sapiens, UniProt P01116, G12C)
Construct: pERK1/2 HTRF read-out
Assay: Assay of intracellular pERK1/2 (Thr202/Tyr204) phosphorylation in NCI-H358 cells (KRAS G12C)
Assay type: cell-based
Details: pERK1/2, 2 days, read-out: NCI-H358 (KRAS G12C) IC50
Description: Example 2: Assay of intracellular pERK1/2 (Thr202/Tyr204)phosphorylation 1. […] Fluorescence ratio=fluorescence value665 nm/fluorescence value615 nm Inhibition rate (%)=100−((fluorescence ratio of compound well−fluorescence ratio of negative control well)/(fluorescence ratio of positive control well−fluorescence ratio of negative control well))×100 […]
Reported Property: IC50 (nM)

[
  {
    "Compound": "[2H]C1([2H])CC[C@@]2(C([2H])([2H])Oc3nc4c5c(nc(-c6cc(N)ccc6C(F)(F)F)c(F)c5n3)OCCN4C(C)c3cccnc3N)C[C@@H](F)CN12 (stereo partly drawn)",
    "Reported Property": "IC50",
    "Experimental Result": 0.9
  },
  {
    "Compound": "CC(c1cccnc1N)N1c2nc(OC[C@@H]3C[C@@H](F)CN3C)nc3c(F)c(-c4cc(N)cc(Cl)c4C(F)(F)F)nc(c23)OC[C@@H]1C (single isomer, unassigned)",
    "Reported Property": "IC50",
    "Experimental Result": 0.2
  },
  {
    "Compound": "CC(c1cccnc1N)N1CCOc2nc(-c3cc(N)c(F)c(Cl)c3C(F)(F)F)c(F)c3nc(OC[C@@]45CCCN4C[C@H](F)C5)nc1c23 (stereo partly drawn)",
    "Reported Property": "IC50",
    "Experimental Result": 0.2
  }
]
